# System: K4 kissing-loop RNA reporter;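 note: bound reporter read as fluorescence of individual clusters on recovered sequencing chips by microscopy, with normalized cluster intensities fitted with a binding model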
# ASSAY_REMARKS: apparent KD of K4 kissing-loop reporter; higher = weaker reporter binding
# RUN_PARAMETERS: Eterna round: R107; input ligand: tryptophan 2.4 mM
EXPERIMENTAL_ENDPOINT: apparent KD of K4 kissing-loop reporter (nM)
// units = nM; emit number, no label

Please review the following examples before continuing.
1. UAGUCGCUAGUUAGCGACAACGGGUCAGAUACCAGACUAGCGAUAGUCCCUUGGCAGCUGAAGUUCAGUGAUGUUGAACGGAUUA [Theo A SS t10] | 207
2. ACCUGUAGUGAUGUUACUGGUGGUUAGGAAGGAGCGCCCGCGUGGGCAGGUAGGUCGCCUAAGCUAUGUGGGAAACCGCAUAUUG [#14 K4 Arginine A Same State] | 93.3
3. GAGGGCUCGGGAGGAUAUGAGUCUAGUGAUGUUAGGCGGUCCAUGCGCGUGGCGCGUUAUGCCCUUUUAGAAGGCCCGAGCCCGC [#2 Exclusion - FMN B Attempt #23 (HarryS)] | 93.8
4. CAAUGAGUAUAAGAUGAUAUCAUAACAGAAGGAGCGAGUGAUAACUCAGGUAGGUCGCUGAAUUUAUCGAGUGAUGUUCGAUAAA [whbob_SS_Arginine_A_sa116] | 184
5. UUUUUUAAUGGAAGGAGCGCGUGGGCGCAGUGAUGUUGCGCCCGACAUCACUUCAACUUAACGCAGGUAGGUCGCCAUUAUUUUU [Arginine B (Excl) V6] | 127

# input Endpoint output: apparent KD of K4 kissing-loop reporter of GCCGUAGAUUGAAGGAGCGAGGCUACUUAAAGACCGAGUGAUGUUCGGGAACGUGAAACUCCUCAGGUAGGUCGCAAUCUACGGC . Value?
# output 267

# input Same question, UGAUACCAGACGGCCGCCACUCCCGCAGGUCAAAGACCUGCGAAGAUGGUUCUUCAGUGAUGUUGGAGGACCGGGUCUGGUAUCU [FiskerMod 23 - Jieux - Exclusion - Tryptophan B] this time
# output 314

Data origin: the supplement of paper PMC9170038
